biological target: T1, CD3 epsilon homodimer protein (UniProt P07766 23-126); test: SPR Biacore T200, CD3e homodimer on chip, vs unaltered GLS3000 antibody
T1 construct: also called CD3 (CD3 epsilon)
T1 sequence (P07766 23-126): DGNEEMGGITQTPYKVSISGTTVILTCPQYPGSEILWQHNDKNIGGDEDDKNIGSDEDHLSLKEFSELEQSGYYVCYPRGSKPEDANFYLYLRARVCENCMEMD
Field: label. Allowed values: 1 (ratio of amounts bound (Z=Y/X) < 0.7) or -1 (ratio of amounts bound (Z=Y/X) >= 0.7).

Observe how each entry below is paired with its result.
binder="GLS3000 R24T (antibody, name in Kabat numbering, V domains shown, one-arm IgG as m2) VH: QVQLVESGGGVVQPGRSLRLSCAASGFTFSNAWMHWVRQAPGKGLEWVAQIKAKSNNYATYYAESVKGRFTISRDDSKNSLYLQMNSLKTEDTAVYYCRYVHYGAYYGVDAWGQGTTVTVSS VL: DIVMTQSPLSLPVTPGEPASISCTSSQSLVHSNRNTYLHWYQQKPGQAPRLLIYKVSNRFSGVPDRFSGSGSGTDFTLKISRVEAEDVGVYYCGQGTQVPYTFGQGTKLEIK" class_label=-1
binder="GLS3000 S25V (antibody, name in Kabat numbering, V domains shown, one-arm IgG as m2) VH: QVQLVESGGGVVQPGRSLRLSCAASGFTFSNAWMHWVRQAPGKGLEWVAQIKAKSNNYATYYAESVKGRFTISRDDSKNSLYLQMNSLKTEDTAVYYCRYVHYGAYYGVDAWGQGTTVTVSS VL: DIVMTQSPLSLPVTPGEPASISCRVSQSLVHSNRNTYLHWYQQKPGQAPRLLIYKVSNRFSGVPDRFSGSGSGTDFTLKISRVEAEDVGVYYCGQGTQVPYTFGQGTKLEIK" class_label=-1
binder="GLS3000 N28Q (antibody, name in Kabat numbering, V domains shown, one-arm IgG as m2) VH: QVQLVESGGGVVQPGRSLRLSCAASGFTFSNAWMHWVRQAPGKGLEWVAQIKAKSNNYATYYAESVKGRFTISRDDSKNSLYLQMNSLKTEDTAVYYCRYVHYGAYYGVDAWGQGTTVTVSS VL: DIVMTQSPLSLPVTPGEPASISCRSSQSLVHSQRNTYLHWYQQKPGQAPRLLIYKVSNRFSGVPDRFSGSGSGTDFTLKISRVEAEDVGVYYCGQGTQVPYTFGQGTKLEIK" class_label=1
binder="GLS3000 S27eV (antibody, name in Kabat numbering, V domains shown, one-arm IgG as m2) VH: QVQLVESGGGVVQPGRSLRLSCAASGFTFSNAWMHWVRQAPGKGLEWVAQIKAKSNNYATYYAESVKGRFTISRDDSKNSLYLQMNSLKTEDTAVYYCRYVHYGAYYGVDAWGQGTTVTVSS VL: DIVMTQSPLSLPVTPGEPASISCRSSQSLVHVNRNTYLHWYQQKPGQAPRLLIYKVSNRFSGVPDRFSGSGSGTDFTLKISRVEAEDVGVYYCGQGTQVPYTFGQGTKLEIK" class_label=-1
binder="GLS3000 K50A (antibody, name in Kabat numbering, V domains shown, one-arm IgG as m2) VH: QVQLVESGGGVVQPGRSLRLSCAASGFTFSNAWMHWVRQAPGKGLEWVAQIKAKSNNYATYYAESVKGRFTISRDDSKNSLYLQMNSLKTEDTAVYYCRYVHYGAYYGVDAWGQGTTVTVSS VL: DIVMTQSPLSLPVTPGEPASISCRSSQSLVHSNRNTYLHWYQQKPGQAPRLLIYAVSNRFSGVPDRFSGSGSGTDFTLKISRVEAEDVGVYYCGQGTQVPYTFGQGTKLEIK" class_label=1
binder="GLS3000 V27cL (antibody, name in Kabat numbering, V domains shown, one-arm IgG as m2) VH: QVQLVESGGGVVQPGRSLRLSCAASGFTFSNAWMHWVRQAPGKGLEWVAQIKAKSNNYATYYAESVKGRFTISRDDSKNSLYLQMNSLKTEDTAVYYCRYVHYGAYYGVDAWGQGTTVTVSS VL: DIVMTQSPLSLPVTPGEPASISCRSSQSLLHSNRNTYLHWYQQKPGQAPRLLIYKVSNRFSGVPDRFSGSGSGTDFTLKISRVEAEDVGVYYCGQGTQVPYTFGQGTKLEIK" class_label=-1
binder="GLS3000 V51P (antibody, name in Kabat numbering, V domains shown, one-arm IgG as m2) VH: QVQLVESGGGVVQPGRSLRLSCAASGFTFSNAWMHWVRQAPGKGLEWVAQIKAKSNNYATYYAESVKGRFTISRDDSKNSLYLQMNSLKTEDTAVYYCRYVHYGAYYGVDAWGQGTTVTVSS VL: DIVMTQSPLSLPVTPGEPASISCRSSQSLVHSNRNTYLHWYQQKPGQAPRLLIYKPSNRFSGVPDRFSGSGSGTDFTLKISRVEAEDVGVYYCGQGTQVPYTFGQGTKLEIK" class_label=1

Query: hey, is ratio of amounts bound (Z=Y/X) for GLS3000 S27eK (antibody, name in Kabat numbering, V domains shown, one-arm IgG as m2) VH: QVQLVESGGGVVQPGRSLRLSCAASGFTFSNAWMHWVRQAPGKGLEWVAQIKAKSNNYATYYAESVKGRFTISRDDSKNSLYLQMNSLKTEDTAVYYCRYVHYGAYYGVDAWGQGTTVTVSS VL: DIVMTQSPLSLPVTPGEPASISCRSSQSLVHKNRNTYLHWYQQKPGQAPRLLIYKVSNRFSGVPDRFSGSGSGTDFTLKISRVEAEDVGVYYCGQGTQVPYTFGQGTKLEIK lower than 0.7 or not?
Reply: -1

Data credit: patent US20210388087A1
